Each recorded value in this set is attributed to PubChem BioAssay (NCI).

assay: NCI Yeast Anticancer Drug Screen. Data for the rad50EPP+ strain (AID 151);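 further: 0% = growth of vehicle-treated control cultures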; details: S. cerevisiae rad50 mutant strain, at 1.2 µM, hits give high values
The panel holds about 79,000 compounds, 15% with a hit somewhere; the sample as a whole holds those more often.
Some compounds, each annotated with its measured growth inhibition.

compound: O=C(O)/C=C\C(=O)NNc1ccc(Br)cc1
growth inhibition, %: 14
//
compound: O=C(CSS(=O)(=O)O)c1ccccc1
growth inhibition, %: -4
//
compound: Cc1[nH]nc(C(F)(F)F)c1N=NN(C)C
growth inhibition, %: 3
//
compound: CCOC(=O)c1sc2[n+](c1C)C(=O)/C(=C/c1cc(OC)c(OC)c(OC)c1)S2
growth inhibition, %: 2
//
compound: CN(C)CCNC(=O)c1cccc2nc3c4ccccc4c4ccccc4c3nc12
growth inhibition, %: 6
//
compound: O=C1c2ccccc2C(=O)C1C(c1ccc(F)cc1)C1C(=O)c2ccccc2C1=O
growth inhibition, %: -8
//
compound: CCOC(=O)/C(O)=C(/C=N/C(=S)Nc1c(CC)cccc1CC)C(=O)OCC
growth inhibition, %: -3
//
compound: O=C1C=CC(=Nc2ccc3c(c2)Cc2cc(Cl)ccc2-3)O1
growth inhibition, %: 78
//
compound: Cc1ccc(N(C=O)c2c([N+](=O)[O-])cc([N+](=O)[O-])c3c2=[N+]([O-])CN=3)cc1
growth inhibition, %: 35
//
compound: CCCCCCCCCC/C=C\CC(=O)O
growth inhibition, %: -4
//
compound: COc1ccc2nc3cccc([N+](=O)[O-])c3c(NCCCO)c2c1
growth inhibition, %: 9
//
compound: CC(=O)CC[N+](C)(C)C
growth inhibition, %: -7
//
compound: O=S(=O)(CCC[C@H]1[C@@H](CCOCc2ccccc2)C2CCCN1O2)c1ccccc1 (some centres not stated)
growth inhibition, %: 0
//
compound: Cc1ccc(Nc2n[nH]c(=S)s2)cc1C
growth inhibition, %: -7
//
compound: S=C1NC2=C(CSC/C2=C\c2ccc(Cl)cc2)C(c2ccc(Cl)cc2)N1 (configuration not stated)
growth inhibition, %: -3
//
compound: CC(O)CN1C(=O)c2cccc3cc([N+](=O)[O-])cc(c23)C1=O (configuration not stated)
growth inhibition, %: 10
//
compound: COc1ccc(/C(=N/O)c2ccccc2C2=Nc3ccccc3C(NCc3ccccc3)O2)cc1C (configuration not stated)
growth inhibition, %: 3
//
compound: CN(C)c1ccc(/C=C/c2ccnc3ccc4ccccc4c23)cc1
growth inhibition, %: 2
//
compound: CC(C)c1ccc(C2NC(=S)NC3=C2c2ccccc2C3=O)cc1 (configuration not stated)
growth inhibition, %: 23
//
compound: CC[C@@]1(OC(=O)CN(C)C)C(=O)OCc2c1cc1n(c2=O)Cc2cc3ccccc3nc2-1
growth inhibition, %: 42
//
compound: CCOC(=O)C(NC(=O)c1ccccc1)[CH](c1ccccc1)[Sn]([c]1ccccc1)([c]1ccccc1)[c]1ccccc1 (configuration not stated)
growth inhibition, %: -2
//
compound: Cc1c(N=Nc2ccc(Cl)cc2)c(C)n(C2OC(CO)C(O)C(O)C2O)c(=S)c1C#N (configuration not stated)
growth inhibition, %: 5

---

assay: NCI Yeast Anticancer Drug Screen. Data for the sgs1 strain (AID 173);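 further: 0% = growth of vehicle-only control cultures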; conditions: S. cerevisiae sgs1 mutant, at 3.7 µM, hits give high values
This is part of a sample that, as a whole, favours compounds with a hit. Of some 79,000 tested, about 15% had one in any assay.

compound: CC[C@@]1(OC(=O)CN(C)C)C(=O)OCc2c1cc1n(c2=O)Cc2cc3ccccc3nc2-1
unit_of_measure: %
growth inhibition: 28
//
compound: COc1ccc2c(Cc3c4ccccc4cc4ccccc34)cncc2c1O
unit_of_measure: %
growth inhibition: 8
//
compound: O=C1C=CC(=Nc2ccc3c(c2)Cc2cc(Cl)ccc2-3)O1
unit_of_measure: %
growth inhibition: 48
//
compound: Cc1c2ccncc2c(C)c2c1oc1ccccc12
unit_of_measure: %
growth inhibition: -6
//
compound: CN(C)c1ccc(/C=C/c2ccnc3ccc4ccccc4c23)cc1
unit_of_measure: %
growth inhibition: 11
//
compound: Cc1ccc(S(=O)(=O)N/N=C/c2c(O)ccc3ccccc23)cc1
unit_of_measure: %
growth inhibition: 42
//
compound: c1cc(Nc2ccc3c(c2)OCO3)c2cc(C3CCCCC3)ccc2n1
unit_of_measure: %
growth inhibition: -2
//
compound: COc1ccc(/C(=N/O)c2ccccc2C2=Nc3ccccc3C(NCc3ccccc3)O2)cc1C (stereo not drawn)
unit_of_measure: %
growth inhibition: -2
//
compound: N=C(N)c1ccc(N=Nc2c(O)ccc3c2[nH]c2ccccc23)cc1
unit_of_measure: %
growth inhibition: 21
//
compound: NNc1nnc(-c2ccccc2)nc1Cc1ccccc1
unit_of_measure: %
growth inhibition: -15
//
compound: CCCCOc1ccc(Nc2c3ccccc3nc3ccccc23)cc1
unit_of_measure: %
growth inhibition: -11
//
compound: O=C1OC(c2ccc(Cl)cc2)Sc2ccccc21 (stereo not drawn)
unit_of_measure: %
growth inhibition: 11
//
compound: COC(=O)C1(N2CCOCC2)CCC([C@@H](c2ccccc2)C(C)[N+](=O)[O-])C1 (stereo partly drawn)
unit_of_measure: %
growth inhibition: -1
